Cited source: patent US10738035B2

CC50 at 3 days overview
- Method summary: Compound toxicity, ATPLite (CC50)
- Run conditions: human, HepAD38 cells

Compound	CC50 at 3 days
COCCNC(=O)Nc1cc(C(=O)Nc2cc(F)c(F)c(F)c2)n(C)n1	> 30 µM
Cn1nc(NC(=O)N2CCC(O)CC2)cc1C(=O)Nc1ccccn1	> 30 µM
CCN(C)C(=O)Nc1cc(C(=O)Nc2cc(F)c(F)c(F)c2)n(C)n1	< 10 µM
Cn1nc(NC(=O)N2CCC(O)CC2)cc1C(=O)Nc1cc(F)cc(F)c1	10 to 30 µM
Cn1nc(NC(=O)N2CCC(O)CC2)cc1C(=O)Nc1cccc(O)c1	> 30 µM
Cn1nc(NC(=O)N2CCC(O)CC2)cc1C(=O)Nc1ccc(F)cc1	> 30 µM
Cn1nc(NC(=O)N2CCC(O)CC2)cc1C(=O)Nc1cc(F)c(Cl)c(F)c1	> 30 µM
Cn1nc(NC(=O)N2CCC(O)CC2)c(Cl)c1C(=O)Nc1cc(F)c(F)c(F)c1	> 30 µM
Cn1nc(NC(=O)N2CC(O)C2)cc1C(=O)Nc1cc(F)c(F)c(F)c1	10 to 30 µM
COc1ccc(NC(=O)c2cc(NC(=O)N3CCC(O)CC3)nn2C)cc1	> 30 µM
CN(Cc1ccccc1)C(=O)Nc1cc(C(=O)Nc2cc(F)c(F)c(F)c2)n(C)n1	< 10 µM
Cn1nc(NC(=O)NCCO)cc1C(=O)Nc1cc(F)c(F)c(F)c1	10 to 30 µM
COc1cccc(NC(=O)c2cc(NC(=O)N3CCC(O)CC3)nn2C)c1	> 30 µM
CN(C(=O)Nc1cc(C(=O)Nc2cc(F)c(F)c(F)c2)n(C)n1)C1CC1	> 30 µM
Cn1nc(NC(=O)N2CCC(O)CC2)cc1C(=O)Nc1cc(F)c(F)c(F)c1	> 30 µM
O=C(Nc1cc(F)c(F)c(F)c1)c1cc(NC(=O)N2CCC(O)CC2)no1	< 10 µM
Cn1nc(NC(=O)N2CCC(O)CC2)cc1C(=O)Nc1ccncc1	> 30 µM
CN(CCCO)C(=O)Nc1cc(C(=O)Nc2cc(F)c(F)c(F)c2)n(C)n1	> 30 µM
Cn1nc(NC(=O)N2CCOCC2)cc1C(=O)Nc1cc(F)c(F)c(F)c1	> 30 µM
Cn1nc(NC(=O)N2CCC(O)CC2)cc1C(=O)Nc1cccnc1	> 30 µM
Cn1nc(NC(=O)N2CCC(F)(F)CC2)cc1C(=O)Nc1cc(F)c(F)c(F)c1	> 30 µM
Cn1nc(NC(=O)N2CCC(O)C2)cc1C(=O)Nc1cc(F)c(F)c(F)c1 (stereo not drawn)	< 10 µM
COC(=O)c1cccc(NC(=O)c2cc(NC(=O)N3CCC(O)CC3)nn2C)c1	> 30 µM
O=C(Nc1cc(F)c(F)c(F)c1)c1ccc(Cl)c(NC(=O)N2CCC(O)CC2)c1	> 30 µM
